Assay: BSK_3C_Proliferation: Cell Proliferation Assessment in the BioMAP Diversity Plus: 3C Assay (AID 2283006)
Conditions: primary human endothelial cells (HUVEC)
Calls of active or inactive are those of the source. Rule for the calls: active = hit-call score of the fitted dose curve at least 0.9, where 1 is the maximum; inactive = score below 0.9.
Pick one: 1.0 for active, 0.0 for inactive

Field: example entries. Status: answers known.
compound=CO[C@@H]1[C@H](OC(=O)NC(=O)CCl)CC[C@]2(CO2)[C@H]1[C@@]1(C)O[C@@H]1CC=C(C)C class_label=1.0
compound=CCCCCCCCn1sccc1=O class_label=1.0
compound=CC(C)(OOC(C)(C)c1ccccc1)c1ccccc1 class_label=1.0
compound=COC(=O)c1ccccc1N class_label=0.0
compound=COc1cc(C=O)cc2c1[C@H](COC(N)=O)[C@]1(OC(C)=O)ON2C[C@H]2[C@@H]1N2C(C)=O class_label=1.0
compound="CCC(C)c1ccc(O)cc1 (stereo not drawn)" class_label=0.0
compound=CCN(CC)CCO class_label=0.0
compound="CCOc1cccc(C2(N3CCN(c4ccccc4)CC3)CCC(C)CC2)c1 (stereo not drawn)" class_label=0.0
compound=N#CC(Br)(Br)C(N)=O class_label=0.0
compound="O=C(O)C1C2CCC(O2)C1C(=O)O (stereo not drawn)" class_label=1.0

How was CCN(CC)N=O classified in this test?
0.0

Recorded test call requested for Clc1ccc(C(c2ccc(Cl)cc2)C(Cl)Cl)cc1
1.0

Hello, I am checking results. What call was entered for CCCCCOC(=O)c1ccccc1C(=O)OCCCCC ?
1.0
